# targetOrTestSystem: Serine/threonine-protein kinase Chk2 (Homo sapiens) (UniProt O96017);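 further: reported value is the mean inhibition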
# Sequence (O96017 whole entry): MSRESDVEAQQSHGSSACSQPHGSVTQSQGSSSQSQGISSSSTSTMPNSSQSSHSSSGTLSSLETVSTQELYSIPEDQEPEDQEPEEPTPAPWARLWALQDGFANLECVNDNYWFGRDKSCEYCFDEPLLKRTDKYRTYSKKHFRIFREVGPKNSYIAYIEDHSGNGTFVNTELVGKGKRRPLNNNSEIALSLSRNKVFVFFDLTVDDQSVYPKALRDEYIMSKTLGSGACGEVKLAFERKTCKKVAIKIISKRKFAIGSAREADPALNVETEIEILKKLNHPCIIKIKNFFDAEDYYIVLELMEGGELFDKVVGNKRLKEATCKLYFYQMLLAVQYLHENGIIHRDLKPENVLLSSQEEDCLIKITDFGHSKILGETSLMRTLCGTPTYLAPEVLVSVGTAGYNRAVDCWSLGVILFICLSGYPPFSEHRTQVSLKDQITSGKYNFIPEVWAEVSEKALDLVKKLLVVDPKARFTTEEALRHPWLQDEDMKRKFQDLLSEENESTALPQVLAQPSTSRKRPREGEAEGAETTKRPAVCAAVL
# testConditions: at 1 µM
experimentalEndpoint: inhibition (%)
Field: numeric (%). Do not append units.

O=C1Nc2ccc(-c3cccnc3)cc2C1=Cc1cc(Br)c(O)c(Br)c1; 8.93
FC(F)(F)c1ccc(-c2nn3ncccc3c2-c2ccnc(Nc3ccc4c(c3)OCCO4)n2)cc1; 5.26
Cc1nc(-c2ccccc2)n2nc(NCCCN3CCOCC3)ncc12; 4.72
CCOc1nccc2c1nc(-c1nonc1N)n2CC; 3.78
Cc1cc(O)cc(C)c1/C=C/c1cncc(C(=O)N(C)C)c1; 0.11
NS(=O)(=O)c1ccc(NC=C2C(=O)Nc3ccc4ncsc4c32)cc1; 33.2
N#Cc1cccc(Nc2nccc(-c3cnn4ncccc34)n2)c1; 10.6
COc1cccc(-n2nc(C)c3c(N/N=C(\C)c4ccncc4)ncnc32)c1; 0.48

So what does the record say about inhibition for `Cc1ccc(O)cc1Nc1ccnc2ccc(S(C)(=O)=O)cc12` ?
15.1

So what does the record say about inhibition for `c1ccc(Cc2nc3ccc(Nc4ncnc5ccccc45)cc3[nH]2)cc1` ?
5.02

So what does the record say about inhibition for `OCc1ccc(-c2nc(-c3ccccn3)c(-c3ccc4c(c3)OCO4)[nH]2)cc1` ?
4.36

So what does the record say about inhibition for `COc1cc2ncnc(Nc3ccc(C)c(O)c3)c2cc1OC` ?
25.5

###

// inhibition lookup, one value per entry
# targetOrTestSystem: Proto-oncogene tyrosine-protein kinase receptor Ret (Homo sapiens) (UniProt P07949);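 further: reported figure is the mean of RET inhibition measurements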
# Sequence (P07949 whole entry): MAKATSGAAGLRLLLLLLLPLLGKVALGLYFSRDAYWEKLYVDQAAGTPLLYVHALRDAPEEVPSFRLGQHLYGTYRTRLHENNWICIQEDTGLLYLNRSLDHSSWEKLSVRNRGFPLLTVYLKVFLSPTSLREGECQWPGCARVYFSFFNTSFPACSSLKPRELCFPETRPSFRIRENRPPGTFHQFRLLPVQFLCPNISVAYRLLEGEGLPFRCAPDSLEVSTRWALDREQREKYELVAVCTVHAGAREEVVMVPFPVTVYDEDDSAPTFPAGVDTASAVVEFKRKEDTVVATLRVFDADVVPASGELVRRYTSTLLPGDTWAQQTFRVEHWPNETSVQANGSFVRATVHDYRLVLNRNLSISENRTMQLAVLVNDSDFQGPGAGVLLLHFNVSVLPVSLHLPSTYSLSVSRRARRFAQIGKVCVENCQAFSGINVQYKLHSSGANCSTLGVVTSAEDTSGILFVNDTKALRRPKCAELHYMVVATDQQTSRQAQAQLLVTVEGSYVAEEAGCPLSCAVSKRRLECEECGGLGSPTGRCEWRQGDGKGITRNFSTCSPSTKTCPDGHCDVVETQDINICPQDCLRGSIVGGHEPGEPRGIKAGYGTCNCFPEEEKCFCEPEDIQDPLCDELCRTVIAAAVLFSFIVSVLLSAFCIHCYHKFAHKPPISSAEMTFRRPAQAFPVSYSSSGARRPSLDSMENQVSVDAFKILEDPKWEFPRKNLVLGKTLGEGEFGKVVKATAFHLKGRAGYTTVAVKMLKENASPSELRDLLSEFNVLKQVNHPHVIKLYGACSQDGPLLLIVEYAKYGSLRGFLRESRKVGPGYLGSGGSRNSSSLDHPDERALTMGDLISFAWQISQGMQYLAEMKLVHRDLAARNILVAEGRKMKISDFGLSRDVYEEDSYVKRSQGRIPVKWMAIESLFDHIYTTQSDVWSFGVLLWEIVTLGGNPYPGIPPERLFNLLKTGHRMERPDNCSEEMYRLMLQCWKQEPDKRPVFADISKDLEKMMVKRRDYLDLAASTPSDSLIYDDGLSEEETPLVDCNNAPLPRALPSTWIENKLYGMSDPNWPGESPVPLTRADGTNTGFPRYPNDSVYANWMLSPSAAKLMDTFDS
# testConditions: at 0.1 µM
Field: numeric (%). Do not append units.

Cc1cc(O)cc(C)c1/C=C/c1cncc(C(=O)N(C)C)c1; 8.48

So what does the record say about inhibition for `Cc1cc(Cl)cc2c1NC(=O)C2=NNc1ccc(S(N)(=O)=O)cc1` ?
2.45

So what does the record say about inhibition for `COc1cccc(-n2ncc3c(N/N=C/c4ccc(S(C)(=O)=O)cc4)ncnc32)c1` ?
11.4

So what does the record say about inhibition for `CS(=O)(=O)Nc1cccc(-c2ccc3c(NC(=O)C4CC4)n[nH]c3c2)c1` ?
-0.07

So what does the record say about inhibition for `CC(C)c1ccc(Nc2nccc(-c3cnn4ncccc34)n2)cc1` ?
6.8

So what does the record say about inhibition for `CCS(=O)(=O)c1ccc(OC)c(Nc2ncc(-c3cccc(OC)c3)o2)c1` ?
21.9

So what does the record say about inhibition for `CCS(=O)(=O)c1ccc(OC)c(Nc2nccc(N(C)c3ccc4c(C)n[nH]c4c3)n2)c1` ?
64.8

So what does the record say about inhibition for `Nc1nccc(-c2c(-c3ccc(F)cc3)nn3cc(C(F)(F)F)ccc23)n1` ?
2.76

So what does the record say about inhibition for `COc1ccc(-c2nn3ncccc3c2-c2ccnc(Nc3cccc(C(F)(F)F)c3)n2)cc1` ?
2.63

So what does the record say about inhibition for `[O-][S+]1CCN(Cc2ccc(-c3ccc4ncnc(Nc5ccc(OCc6ccccc6)c(Cl)c5)c4c3)o2)CC1` ?
3.12

So what does the record say about inhibition for `CN(C)CCCn1c(-c2nonc2N)nc2cnccc21` ?
7.25

So what does the record say about inhibition for `C[C@@H](Oc1cc(-n2cnc3ccc(OCC4CCN(C)CC4)cc32)sc1C(N)=O)c1ccccc1C(F)(F)F` ?
2.63

###

# targetOrTestSystem: Insulin receptor-related protein (Homo sapiens) (UniProt P14616);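 further: each reported figure is the mean of the IRR inhibition readings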
# Sequence (P14616 27-742 limits assumed): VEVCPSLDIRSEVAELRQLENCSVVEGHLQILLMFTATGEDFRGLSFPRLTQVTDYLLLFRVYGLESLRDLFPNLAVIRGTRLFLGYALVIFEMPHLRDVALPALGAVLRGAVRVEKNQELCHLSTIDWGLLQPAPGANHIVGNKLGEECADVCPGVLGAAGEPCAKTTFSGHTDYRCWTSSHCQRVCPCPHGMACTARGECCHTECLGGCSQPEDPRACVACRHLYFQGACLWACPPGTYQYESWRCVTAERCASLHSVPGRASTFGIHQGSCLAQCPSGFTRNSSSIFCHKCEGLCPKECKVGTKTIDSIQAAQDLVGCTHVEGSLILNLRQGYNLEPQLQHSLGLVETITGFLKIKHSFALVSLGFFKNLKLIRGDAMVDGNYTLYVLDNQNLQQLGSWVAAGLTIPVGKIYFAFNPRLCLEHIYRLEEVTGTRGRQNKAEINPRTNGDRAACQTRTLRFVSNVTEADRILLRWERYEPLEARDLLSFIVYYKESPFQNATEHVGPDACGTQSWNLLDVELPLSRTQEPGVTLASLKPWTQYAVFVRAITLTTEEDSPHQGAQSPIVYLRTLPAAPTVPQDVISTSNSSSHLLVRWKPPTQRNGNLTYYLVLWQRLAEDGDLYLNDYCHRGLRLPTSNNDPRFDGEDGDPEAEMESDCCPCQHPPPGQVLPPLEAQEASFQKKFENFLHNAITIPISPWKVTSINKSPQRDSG
# Sequence (P14616 747-1297 limits assumed): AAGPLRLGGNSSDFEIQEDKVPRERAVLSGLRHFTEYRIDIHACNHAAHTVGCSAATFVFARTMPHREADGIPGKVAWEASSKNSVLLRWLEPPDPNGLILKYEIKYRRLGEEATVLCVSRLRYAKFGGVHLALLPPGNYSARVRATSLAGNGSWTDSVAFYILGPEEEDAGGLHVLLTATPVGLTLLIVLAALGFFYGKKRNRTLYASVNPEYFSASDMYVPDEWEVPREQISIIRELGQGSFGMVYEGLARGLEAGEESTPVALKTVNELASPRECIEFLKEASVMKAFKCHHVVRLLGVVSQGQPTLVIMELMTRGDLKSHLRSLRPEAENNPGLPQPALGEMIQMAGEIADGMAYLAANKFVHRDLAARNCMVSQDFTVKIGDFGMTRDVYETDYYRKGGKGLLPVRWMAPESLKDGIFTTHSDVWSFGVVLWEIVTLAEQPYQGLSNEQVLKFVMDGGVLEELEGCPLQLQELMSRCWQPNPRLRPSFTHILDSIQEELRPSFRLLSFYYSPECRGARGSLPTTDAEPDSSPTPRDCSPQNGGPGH
# testConditions: at 1 µM
experimentalEndpoint: inhibition (%)
Field: numeric (%). Do not append units.

See these solved cases before continuing.
CCn1c(-c2nonc2N)nc2ccc(F)cc21; 3.56
N#Cc1cccc(Nc2nccc(-c3cnn4ncccc34)n2)c1; 10.8
FC(F)(F)c1ccc(-c2nn3ncccc3c2-c2ccnc(Nc3ccc4c(c3)OCCO4)n2)cc1; 0.97
Cc1ccc2c(-c3ccnc(Nc4cccc(C(F)(F)F)c4)n3)c(-c3ccccc3)nn2n1; 6.16

So what does the record say about inhibition for `NS(=O)(=O)c1cccc(Nc2cc(-c3ccc(F)cc3)n[nH]2)c1` ?
2.3

So what does the record say about inhibition for `COc1cc(Nc2nccc(-c3cnn4ncccc34)n2)cc(OC)c1` ?
22.1

So what does the record say about inhibition for `COc1cccc(-n2nc(C)c3c(N/N=C(\C)c4ccncc4)ncnc32)c1` ?
-2.33

So what does the record say about inhibition for `COc1ccc(-c2nn3ncccc3c2-c2ccnc(Nc3cccc(C(F)(F)F)c3)n2)cc1` ?
1.54

So what does the record say about inhibition for `Nc1nccc(-c2c(-c3ccc(F)cc3)nn3cc(C(F)(F)F)ccc23)n1` ?
1.01

So what does the record say about inhibition for `CN(c1ccc(NC(=O)Nc2ccc(OC(F)(F)F)cc2)cc1)c1ccnc(Nc2cccc(S(N)(=O)=O)c2)n1` ?
3.26

So what does the record say about inhibition for `Nc1nccc(C#Cc2cncnc2Nc2ccc(OCc3cccc(F)c3)c(Cl)c2)n1` ?
1.12

So what does the record say about inhibition for `CCOc1nccc2c1nc(-c1nonc1N)n2CC` ?
2.48

So what does the record say about inhibition for `Nc1ccc(C#Cc2cncnc2Nc2ccc(OCc3cccc(F)c3)c(Cl)c2)cc1` ?
2.76

So what does the record say about inhibition for `COc1cc2ncnc(Nc3ccc4c(cnn4Cc4ccccc4)c3)c2cc1OC` ?
2.09

So what does the record say about inhibition for `NS(=O)(=O)c1ccc(Nc2cc(-c3cccc(O)c3)n[nH]2)cc1` ?
2.76

So what does the record say about inhibition for `CC(C)c1ccc(Nc2nccc(-c3cnn4ncccc34)n2)cc1` ?
8.71

So what does the record say about inhibition for `Cc1ccc(O)cc1Nc1ccnc2ccc(S(C)(=O)=O)cc12` ?
3.19

So what does the record say about inhibition for `Cc1ccc(Nc2ccnc(Nc3cccc(C(N)=O)c3)n2)cc1O` ?
3.49

So what does the record say about inhibition for `NS(=O)(=O)c1cccc(-c2cc3ccncc3cc2OCc2ccccc2)c1` ?
1.54

So what does the record say about inhibition for `Cc1cc(Cl)cc2c1NC(=O)C2=NNc1ccc(S(N)(=O)=O)cc1` ?
1.47

So what does the record say about inhibition for `NC(=O)c1sc(-n2cnc3ccccc32)cc1OCc1ccccc1Br` ?
3.4

So what does the record say about inhibition for `Cc1nc(-c2ccccc2)n2nc(NCCCN3CCOCC3)ncc12` ?
1.44

So what does the record say about inhibition for `c1ccc(Cc2nc3ccc(Nc4ncnc5ccccc45)cc3[nH]2)cc1` ?
3.31

So what does the record say about inhibition for `CS(=O)(=O)Nc1cccc(-c2ccc3c(NC(=O)C4CC4)n[nH]c3c2)c1` ?
-1.26

###

# targetOrTestSystem: Serine/threonine-protein kinase Nek9 (Homo sapiens) (UniProt Q8TD19);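 further: each value is a mean percent inhibition of NEK9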
# Sequence (Q8TD19 whole entry): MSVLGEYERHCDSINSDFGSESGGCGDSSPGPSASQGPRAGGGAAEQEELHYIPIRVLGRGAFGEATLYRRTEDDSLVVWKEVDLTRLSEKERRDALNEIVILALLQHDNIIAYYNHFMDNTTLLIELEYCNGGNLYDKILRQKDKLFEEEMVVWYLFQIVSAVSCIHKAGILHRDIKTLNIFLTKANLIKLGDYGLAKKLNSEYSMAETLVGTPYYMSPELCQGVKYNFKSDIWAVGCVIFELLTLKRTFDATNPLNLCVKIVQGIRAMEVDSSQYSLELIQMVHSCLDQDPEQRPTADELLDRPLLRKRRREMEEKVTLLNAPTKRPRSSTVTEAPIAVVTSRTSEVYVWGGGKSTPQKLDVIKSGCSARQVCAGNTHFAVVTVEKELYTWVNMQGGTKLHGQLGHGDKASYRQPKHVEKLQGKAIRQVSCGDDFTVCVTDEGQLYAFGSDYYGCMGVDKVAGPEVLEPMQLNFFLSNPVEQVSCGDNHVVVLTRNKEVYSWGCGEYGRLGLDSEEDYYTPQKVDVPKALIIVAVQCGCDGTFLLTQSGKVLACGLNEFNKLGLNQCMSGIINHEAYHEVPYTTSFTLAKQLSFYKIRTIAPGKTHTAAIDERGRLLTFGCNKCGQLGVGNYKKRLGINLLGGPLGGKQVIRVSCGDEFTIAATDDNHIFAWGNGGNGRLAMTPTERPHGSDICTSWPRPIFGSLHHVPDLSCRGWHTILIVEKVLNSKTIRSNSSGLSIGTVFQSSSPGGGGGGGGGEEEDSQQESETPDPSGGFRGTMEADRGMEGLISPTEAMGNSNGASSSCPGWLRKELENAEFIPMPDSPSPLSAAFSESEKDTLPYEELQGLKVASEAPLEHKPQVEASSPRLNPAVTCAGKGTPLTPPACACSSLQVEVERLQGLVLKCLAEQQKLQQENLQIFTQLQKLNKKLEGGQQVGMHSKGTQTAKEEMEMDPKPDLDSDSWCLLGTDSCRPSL
# testConditions: at 1 µM
// inhibition lookup, one value per entry
Put down the number, then write its unit next to it.

See these solved cases before continuing.
COc1ccc2ncnc(Nc3ccc(OCc4ccccc4)cc3)c2c1; 4.48%
FC(F)(F)c1ccc(-c2nn3ncccc3c2-c2ccnc(Nc3ccc4c(c3)OCCO4)n2)cc1; -0.89%
CN(C)C(=O)O[C@@H]1CN[C@@H](C#Cc2cc3ncnc(Nc4ccc(OCc5cccc(F)c5)c(Cl)c4)c3s2)C1; 5.37%
NS(=O)(=O)c1cccc(-c2cc3ccncc3cc2OCc2ccccc2)c1; 5.52%

Next, consider the following molecule.
Field: inhibition (Serine/threonine-protein kinase Nek9 (Homo sapiens) (UniProt Q8TD19)). Entry: CCCN1CCCC(c2ccc(Nc3nc(Nc4cc(F)ccc4C(N)=O)c4cc[nH]c4n3)c(OC)c2)C1 (stereo not given)
12.8%

###

# targetOrTestSystem: Tyrosine-protein kinase TXK (Homo sapiens) (UniProt P42681);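 further: value given is the mean percent inhibition of TXK kinase activity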
# Sequence (P42681 whole entry): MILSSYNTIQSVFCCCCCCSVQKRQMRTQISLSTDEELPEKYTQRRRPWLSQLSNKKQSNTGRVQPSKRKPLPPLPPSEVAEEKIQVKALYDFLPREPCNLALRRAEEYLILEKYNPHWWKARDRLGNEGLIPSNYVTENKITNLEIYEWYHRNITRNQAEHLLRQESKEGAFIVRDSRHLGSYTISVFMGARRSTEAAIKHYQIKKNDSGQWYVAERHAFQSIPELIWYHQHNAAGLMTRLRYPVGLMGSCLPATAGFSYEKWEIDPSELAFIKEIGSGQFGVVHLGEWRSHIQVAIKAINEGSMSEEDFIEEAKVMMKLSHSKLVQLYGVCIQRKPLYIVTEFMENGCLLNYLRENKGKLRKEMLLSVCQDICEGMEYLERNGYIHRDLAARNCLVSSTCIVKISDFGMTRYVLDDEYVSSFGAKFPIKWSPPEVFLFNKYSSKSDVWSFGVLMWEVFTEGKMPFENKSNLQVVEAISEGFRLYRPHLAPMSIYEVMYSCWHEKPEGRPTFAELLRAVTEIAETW
# testConditions: at 1 µM
experimentalEndpoint: inhibition
Put down the number, then write its unit next to it.

See these solved cases before continuing.
Cc1cc(-c2ccccn2)cc(C)c1/C=C/c1cncc(-c2nn[nH]n2)c1; 4.47%
NS(=O)(=O)c1cccc(-c2cc3ccncc3cc2OCc2ccccc2)c1; 10.2%
NS(=O)(=O)c1cccc(Nc2cc(-c3ccc(F)cc3)n[nH]2)c1; 3.31%
NC(=O)c1cccc(Nc2nccc(Nc3cccc(F)c3)n2)c1; 29%
O=C1Nc2ccccc2/C1=C/Nc1ccc2[nH]c(=O)[nH]c2c1; 7.08%

Field: inhibition (Tyrosine-protein kinase TXK (Homo sapiens) (UniProt P42681)). Entry: `Cc1cc(O)cc(C)c1/C=C/c1cncc(C(=O)N(C)C)c1`
3.74%

Field: inhibition (Tyrosine-protein kinase TXK (Homo sapiens) (UniProt P42681)). Entry: `NS(=O)(=O)c1ccc(N/N=C2\C(=O)Nc3ccc(Cl)cc32)cc1`
4.96%

Field: inhibition (Tyrosine-protein kinase TXK (Homo sapiens) (UniProt P42681)). Entry: `NS(=O)(=O)c1ccc(NC=C2C(=O)Nc3ccc4ncsc4c32)cc1`
17.2%

Field: inhibition (Tyrosine-protein kinase TXK (Homo sapiens) (UniProt P42681)). Entry: `CN(C)C(=O)O[C@@H]1CN[C@@H](C#Cc2cc3ncnc(Nc4ccc(OCc5cccc(F)c5)c(Cl)c4)c3s2)C1`
5.35%

Field: inhibition (Tyrosine-protein kinase TXK (Homo sapiens) (UniProt P42681)). Entry: `COc1cc(Nc2nccc(-c3cnn4ncccc34)n2)cc(OC)c1`
31.4%

Field: inhibition (Tyrosine-protein kinase TXK (Homo sapiens) (UniProt P42681)). Entry: `CN1CCN(C(=O)c2ccc(NC(=O)Nc3ccc(N(C)c4ccnc(Nc5ccc(CS(C)(=O)=O)cc5)n4)cc3)cc2)CC1`
70.1%

Field: inhibition (Tyrosine-protein kinase TXK (Homo sapiens) (UniProt P42681)). Entry: `Cc1ccc(Nc2ccnc(Nc3cccc(C(N)=O)c3)n2)cc1O`
43.7%
